Biological target: Complement C1q (UniProt P02745;P02746;P02747 P02745:23-245,P02746:28-253,P02747:29-245)
Experiment: filter; above background at 0.1 and 0.5 nM C1q
Conditions: tags: Quidel; chain copies: 6
measurementLabel: binding result

C1q clone 30 (ssRNA, 2'-NH2 pyrimidines) RNA: GGGAGGACGAUGCGGGUGGAGUGGGGAUCAUACGGCUGGUAGCACGAGCUCCCUAACAGCGGUCAGACGACUCGCCCGA ... binds
C1q clone 47 (ssRNA, 2'-NH2 pyrimidines) RNA: GGGAGGACGAUGCGGGUGGAGCGGAGGUUUAUACGGCUGGUAGCUCGAGCUCCCUAACACGCGGUAGACGACUCGCCCGA ... binds
C1q clone 3 (ssRNA, 2'-NH2 pyrimidines) RNA: GGGAGGACGAUGCGGGAGGAGUGGAGGUAAACAAUAGGUCGGUAGCGACUCCCACUAACAGGCCUCAGACGACUCGCCCGA ... binds
